Target: T1, SH2 domain of Vav1 (669-771) (mouse, UniProt P27870 669-771)
T1 sequence (looked up): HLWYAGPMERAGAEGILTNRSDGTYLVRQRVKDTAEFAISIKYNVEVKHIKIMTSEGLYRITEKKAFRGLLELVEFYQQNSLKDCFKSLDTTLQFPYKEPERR
Experiment: ITC
Where no end group is shown, it is not given here. [ ]: non-standard residue; d: D form. pY = N[C@@H](Cc1ccc(OP(=O)(O)O)cc1)C(=O)O
observationType: pKd
Quick note: pKd values are minus log10 of concentrations in mol/L.

Noted for EDD[pY]ESPND [SLP76 pY112 peptide] : its pKd reads 5.79
